Target: HLA-DR (DRA1*01:01 / DRB1*16:02), soluble knob-into-hole Fc heterodimer (human)
Assay: ELISA
No end group written: not given here.
property: Kd
Number first, unit second.

Per the records, this binder ( KPVSKMRMATPLLMQALPM (also: biotin-labeled) [biotin-labeled human Class II-associated Invariant Chain Peptide (Bio-CLIP)] ) has Kd equal to 8.67 nM
